Molecular target: rat α1β2γ2L type GABAA receptors expressed in Xenopus laevis oocytes (Rattus norvegicus, UniProt P62813+P63138)
Construct: expressed in transfected cells; host or cells: Xenopus laevis oocytes
Sequence (P62813 28-455): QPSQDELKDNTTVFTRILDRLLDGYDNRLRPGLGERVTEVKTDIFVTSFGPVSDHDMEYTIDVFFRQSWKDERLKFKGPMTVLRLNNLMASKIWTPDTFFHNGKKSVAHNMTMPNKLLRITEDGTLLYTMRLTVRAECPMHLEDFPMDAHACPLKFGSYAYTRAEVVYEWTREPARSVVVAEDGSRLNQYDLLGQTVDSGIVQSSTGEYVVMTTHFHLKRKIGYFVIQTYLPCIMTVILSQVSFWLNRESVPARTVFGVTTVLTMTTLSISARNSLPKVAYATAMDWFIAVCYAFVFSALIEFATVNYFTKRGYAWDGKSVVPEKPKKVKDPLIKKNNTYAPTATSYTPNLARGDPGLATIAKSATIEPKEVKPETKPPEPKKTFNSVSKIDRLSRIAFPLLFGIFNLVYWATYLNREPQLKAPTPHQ
Sequence (P63138 26-474): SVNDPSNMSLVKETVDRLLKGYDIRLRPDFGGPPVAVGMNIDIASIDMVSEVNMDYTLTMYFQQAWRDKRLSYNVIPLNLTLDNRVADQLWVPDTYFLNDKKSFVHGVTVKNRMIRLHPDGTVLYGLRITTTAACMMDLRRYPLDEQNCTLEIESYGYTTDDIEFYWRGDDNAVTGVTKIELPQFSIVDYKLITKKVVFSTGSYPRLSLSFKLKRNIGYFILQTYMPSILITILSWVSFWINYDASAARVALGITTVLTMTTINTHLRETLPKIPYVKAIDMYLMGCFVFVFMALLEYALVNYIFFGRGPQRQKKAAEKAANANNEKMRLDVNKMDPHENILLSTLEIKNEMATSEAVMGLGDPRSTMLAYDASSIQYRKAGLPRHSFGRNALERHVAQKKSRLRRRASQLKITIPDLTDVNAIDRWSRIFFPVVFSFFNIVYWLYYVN
Sequence (P18508 with tags, fused parts or gaps INS375LLRMFSFK partner): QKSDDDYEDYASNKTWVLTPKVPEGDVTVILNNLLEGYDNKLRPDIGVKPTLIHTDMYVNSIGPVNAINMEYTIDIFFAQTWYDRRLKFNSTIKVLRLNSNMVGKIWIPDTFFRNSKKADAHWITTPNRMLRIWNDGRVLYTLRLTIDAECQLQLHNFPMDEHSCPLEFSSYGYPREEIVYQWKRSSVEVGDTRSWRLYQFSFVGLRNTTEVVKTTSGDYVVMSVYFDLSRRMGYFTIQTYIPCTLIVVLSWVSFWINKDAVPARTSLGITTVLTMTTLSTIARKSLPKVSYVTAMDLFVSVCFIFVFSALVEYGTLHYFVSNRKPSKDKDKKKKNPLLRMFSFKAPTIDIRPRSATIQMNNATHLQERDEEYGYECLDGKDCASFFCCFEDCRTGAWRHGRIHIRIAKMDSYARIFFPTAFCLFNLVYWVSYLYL
Assay: Oocyte electrophysiology: potentiation of GABA-mediated chloride currents and direct gating
Assay type: cell-based
Settings: direct current gated by 10 μM compound in absence of GABA; ratio of compound only current/2 μM GABA current

COMPOUND | oocyte electrophysiology (gating) 10 μM
COC[C@]12CC[C@@H](O)C[C@@H]1CC[C@H]1[C@@H]3CC[C@H](OC)[C@@]3(C)CC[C@@H]12 [Compound 8, (5α,17β)-17,19-Dimethoxyandrostan-3-ol] | 0.22
COC[C@]12CCC(=O)C[C@@H]1CC[C@H]1[C@@H]3CC[C@H](OC)[C@@]3(C)CC[C@@H]12 [Compound 7, (5α,17β)-17,19-Dimethoxyandrostan-3-one] | 0.04
COC[C@]12CC[C@@H](O)C[C@@H]1CC[C@H]1[C@@H]3CC[C@H](C(C)=O)[C@@]3(C)CC[C@@H]12 [Compound 17] | 0.23
COC[C@]12CCC(=O)C=C1CC[C@@H]1[C@@H]2CC[C@]2(C)[C@@H](OC)CC[C@@H]12 [Compound 24, (17β)-17,19-Dimethoxyandrost-4-en-3-one] | 0.11
COC[C@]12CC[C@H](O)CC1=CC[C@@H]1[C@@H]2CC[C@]2(C)[C@@H](OC)CC[C@@H]12 [Compound 26] | 0.02
COC[C@]12CC[C@@H](O)C[C@@H]1CC[C@@H]1[C@@H]2CC[C@]2(C)C(C#N)=CC[C@@H]12 [Compound 15] | 0.10
COC[C@]12CC[C@@H](O)C[C@@H]1CC[C@H]1[C@@H]3CC[C@H](C#N)[C@@]3(C)CC[C@@H]12 [Compound 16] | 0.25

---

Target: rat α1β2γ2L type GABAA receptors expressed in Xenopus laevis oocytes (Rattus norvegicus, UniProt P62813+P63138)
Construct: expressed in transfected cells; host or cells: Xenopus laevis oocytes
Assay: Oocyte electrophysiology: potentiation of GABA-mediated chloride currents and direct gating
Type: cell-based
Settings: ratio of currents in presence/absence of 10 μM compound; 2 μM GABA; ± SEM, N ≥4
PROPERTY LABEL: oocyte electrophysiology 10 μM

COMPOUND | PROPERTY LABEL | REPORTED VALUE
COC[C@]12CC[C@@H](O)C[C@@H]1CC[C@@H]1[C@@H]2CC[C@]2(C)C(C#N)=CC[C@@H]12 [Compound 15] | oocyte electrophysiology 10 μM | 25.6
COC[C@]12CCC(=O)C[C@@H]1CC[C@H]1[C@@H]3CC[C@H](OC)[C@@]3(C)CC[C@@H]12 [Compound 7, (5α,17β)-17,19-Dimethoxyandrostan-3-one] | oocyte electrophysiology 10 μM | 1.07
COC[C@]12CC[C@@H](O)C[C@@H]1CC[C@@H]1[C@@H]2CC[C@@]2(C)[C@H]1CC[C@@]21CO1 [Compound 12] | oocyte electrophysiology 10 μM | 18.7
COC[C@]12CC[C@@H](O)C[C@@H]1CC[C@H]1[C@@H]3CC[C@H](C(C)=O)[C@@]3(C)CC[C@@H]12 [Compound 17] | oocyte electrophysiology 10 μM | 33.8
COC[C@]12CC[C@@H](O)C[C@@H]1CC[C@H]1[C@@H]3CC[C@H](C#N)[C@@]3(C)CC[C@@H]12 [Compound 16] | oocyte electrophysiology 10 μM | 25.7
COC[C@]12CC[C@@H](O)C[C@@H]1CC[C@H]1[C@@H]3CC[C@H](C(=O)CO)[C@@]3(C)CC[C@@H]12 [Compound 20] | oocyte electrophysiology 10 μM | 19.0
